Entry source: paper PMC9866630

Target: mP2X7R (Mus musculus, UniProt Q9Z1M0)
Construct: P2X7 receptor expressed in peritoneal macrophages; endogenous in cells; host or cells: mouse peritoneal macrophages (primary)
Sequence (Q9Z1M0 whole entry): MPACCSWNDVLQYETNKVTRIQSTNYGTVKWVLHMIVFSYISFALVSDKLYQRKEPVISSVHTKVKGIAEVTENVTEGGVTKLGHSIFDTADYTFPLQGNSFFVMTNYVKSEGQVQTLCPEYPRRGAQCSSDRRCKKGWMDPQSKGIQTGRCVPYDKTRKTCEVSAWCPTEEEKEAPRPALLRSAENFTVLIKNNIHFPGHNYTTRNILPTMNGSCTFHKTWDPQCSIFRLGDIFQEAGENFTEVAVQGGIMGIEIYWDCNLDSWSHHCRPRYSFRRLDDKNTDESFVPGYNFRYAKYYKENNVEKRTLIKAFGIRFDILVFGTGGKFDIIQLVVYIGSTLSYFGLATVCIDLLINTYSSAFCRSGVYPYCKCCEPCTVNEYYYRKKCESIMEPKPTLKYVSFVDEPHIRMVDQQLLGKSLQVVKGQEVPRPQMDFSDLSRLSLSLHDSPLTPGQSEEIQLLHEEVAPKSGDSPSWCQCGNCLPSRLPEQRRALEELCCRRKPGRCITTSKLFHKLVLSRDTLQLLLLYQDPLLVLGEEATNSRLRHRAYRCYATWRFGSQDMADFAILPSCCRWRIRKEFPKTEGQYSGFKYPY
Assay: ATP-induced IL-1β release ELISA in mouse peritoneal macrophages
Type: cell-based
Conditions: LPS priming, ATP 30 min
value.type: IC50 (µM)
Numbers only, in µM.

// known answers, use as guide
COc1ccc(CC(=O)NC(N=C(NC#N)Nc2cccc3ncccc23)C(C)(C)C)cc1OC (stereo not shown) [Compound A740003, reference compound]; 0.9
O=C1C(Cl)=C(Nc2ccc(NS(=O)(=O)c3ccc([N+](=O)[O-])cc3)cc2)C(=O)c2ccccc21; 0.7
O=C1C(Cl)=C(Nc2ccc(NS(=O)(=O)c3ccc4ccccc4c3)cc2)C(=O)c2ccccc21; 0.09
Cc1ccc(S(=O)(=O)Nc2ccc(NC3=CC(=O)c4ccccc4C3=O)cc2)cc1; 1.5
O=C1C=C(Nc2ccc(NS(=O)(=O)c3ccccc3)cc2)C(=O)c2ccccc21; 5

Please look at the items below and tell me IC50 for each one, in order.
1. O=C1C=C(Nc2ccc(NS(=O)(=O)c3ccc(F)cc3)cc2)C(=O)c2ccccc21
2. CCOc1ccc(Nc2ccc(/C(=C3C=C/C(=[N+](/CC)Cc4cccc(S(=O)(=O)[O-])c4)C=C/3C)c3ccc(N(CC)Cc4cccc(S(=O)(=O)O)c4)cc3C)cc2)cc1 [BBG, Brilliant Blue G, reference compound]

[3, 24]
